experimental protocol: Pharmacokinetic study of SK14-061a after oral and intravenous administration in rats
Format: in vivo
recorded conditions: rat, plasma, po, 1 mg/kg
endpoint name: Cmax (ng/mL)
Response body: numeric value in ng/mL, unit text excluded.

## Task I am curious: what Cmax value has been reported for N#C[C@]1(CO)O[C@@H](n2cnc3c(O)ncnc32)C[C@@H]1O [SK14-061a, 4′-cyano-2′-deoxyinosine] ?
## Result 48.8

---

experimental protocol: Pharmacokinetic study of SK14-061a after oral and intravenous administration in rats
Assay type: in vivo
recorded conditions: rat, plasma, iv; rats, 1 mg/kg
endpoint name: MRT
Hi, when you answer, please include the unit after the number. Thanks!

## Task I am curious: what MRT value has been reported for N#C[C@]1(CO)O[C@@H](n2cnc3c(O)ncnc32)C[C@@H]1O [SK14-061a, 4′-cyano-2′-deoxyinosine] ?
## Result 3.58 h

Attribution: paper PMC5991393
